Where do the numbers come from? From paper PMC6019379.

biological target: ADAAD (Active DNA-dependent ATPase A domain) (Bos taurus, UniProt Q9TTA5, S778A); construct: ATPase domain fragment of bovine SMARCAL1 (RecA-like domains 1 and 2), plasmid pCP101 (pET-14b, NdeI/XhoI), E. coli BL21(DE3), Ni-NTA then DEAE-sepharose; tag removal not mentioned; test: intrinsic tryptophan fluorescence titration (ex […] nm, em […] nm), one-site fit
Quantity kind: pKd
Please treat pKd as minus the base-10 logarithm of the molar concentration.

**Q:** Give reported pKd value for Nc1ncnc2c1ncn2[C@@H]1O[C@H](COP(=O)(O)OP(=O)(O)OP(=O)(O)O)[C@@H](O)[C@H]1O [ATP]
**A:** 5.72
